src = patent US20100311714A1

target: PI3K delta (Homo sapiens, UniProt O00329); construct: for the full-length p110-d subunit are generated and fused by overlapping PCR; His tag (C); made in house; host or cells: baculovirus BV1060; Tn5 (Trichoplusia ni) or TiniPro insect cells; experiment: PI3K delta kinase assay (Kinase-Glo luminescence); format: biochemical; conditions: read-out: PI3Kdelta/IC50
Sequence (O00329 with tags, fused parts or gaps limits assumed): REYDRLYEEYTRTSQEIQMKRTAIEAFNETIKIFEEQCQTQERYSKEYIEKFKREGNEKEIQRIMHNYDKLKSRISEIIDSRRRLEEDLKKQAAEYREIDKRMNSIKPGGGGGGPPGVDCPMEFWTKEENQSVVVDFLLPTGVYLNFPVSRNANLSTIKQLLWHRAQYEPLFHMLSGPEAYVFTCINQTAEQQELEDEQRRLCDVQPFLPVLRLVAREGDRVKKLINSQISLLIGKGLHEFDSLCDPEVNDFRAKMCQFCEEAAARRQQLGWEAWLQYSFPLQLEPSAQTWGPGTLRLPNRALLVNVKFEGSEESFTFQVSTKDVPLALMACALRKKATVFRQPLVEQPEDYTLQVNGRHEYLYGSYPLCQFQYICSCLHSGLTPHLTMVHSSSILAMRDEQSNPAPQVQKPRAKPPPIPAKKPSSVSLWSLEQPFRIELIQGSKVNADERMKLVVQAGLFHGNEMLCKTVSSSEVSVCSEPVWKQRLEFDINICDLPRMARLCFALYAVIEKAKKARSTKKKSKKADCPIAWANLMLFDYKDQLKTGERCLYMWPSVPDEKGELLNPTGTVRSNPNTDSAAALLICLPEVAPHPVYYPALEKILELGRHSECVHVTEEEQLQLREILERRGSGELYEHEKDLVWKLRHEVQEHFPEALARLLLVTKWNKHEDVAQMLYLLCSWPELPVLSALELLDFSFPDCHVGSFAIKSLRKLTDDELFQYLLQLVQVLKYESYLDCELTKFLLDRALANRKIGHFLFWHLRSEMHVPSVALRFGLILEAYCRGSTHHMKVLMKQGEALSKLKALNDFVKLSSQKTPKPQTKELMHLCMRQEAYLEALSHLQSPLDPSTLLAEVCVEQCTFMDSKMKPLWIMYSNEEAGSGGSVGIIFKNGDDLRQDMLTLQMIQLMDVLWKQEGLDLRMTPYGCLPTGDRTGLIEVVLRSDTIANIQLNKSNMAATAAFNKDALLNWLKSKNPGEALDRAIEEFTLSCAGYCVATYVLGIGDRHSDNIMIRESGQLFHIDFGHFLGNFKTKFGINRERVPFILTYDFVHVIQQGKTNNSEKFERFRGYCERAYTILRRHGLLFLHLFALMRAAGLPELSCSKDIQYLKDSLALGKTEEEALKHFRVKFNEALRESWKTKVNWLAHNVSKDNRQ
measured.property: IC50 (µM)
Answer in µM, number only, no unit symbol.

Guide cases for IC50, answers given:
CNc1ncc(-c2ccc3ncc4c(c3c2)n(-c2ncccc2C)c(=O)n4C)cn1 = 0.236
Cc1ncccc1-n1c(=O)n(C)c2cnc3ccc(-c4ccc(OCCCN(C)C)nc4)cc3c21 = 0.855
Cc1ccncc1-n1c(=O)n(C)c2cnc3ccc(-c4ccc(CO)nc4)cc3c21 = 0.406

# input for lookup
Prompt: Recorded IC50 of CCOc1ccc(-c2ccc3ncc4c(c3c2)n(-c2cnccc2C)c(=O)n4C)cn1 , please.
Response: 0.401

---

Entries and their pIC50
system: S6 Ribosomal Protein phosphorylation Ser235/236 in TSC1 null mouse embryo fibroblast (MEF) cells; test: Reverse protein array, S6 Ribosomal Protein phosphorylation in TSC1 null MEF cells; assay type: cell-based; details: 1 h, TSC1-/- MEFs, 60 minutes, read-out: p-S6 IC50
Scale for pIC50: -log10 of concentration given in mol/L; no unit attached.

Guide cases for pIC50, answers given:
COc1nc(N2CCNCC2)ccc1-n1c(=O)n(C)c2cnc3ccc(-c4cnc(N(C)C)nc4)cc3c21 = 8.22
CCNc1cc(-c2ccc3ncc4c(c3c2)n(-c2ccc(N(C)CCOC)nc2C)c(=O)n4C)cnc1C = 8.52

# input for lookup
Prompt: Recorded pIC50 of Cc1nc(F)ccc1-n1c(=O)n(C)c2cnc3ccc(-c4cncc(N)c4)cc3c21 , please.
Response: 7.59

---

biological target: PI3K alfa (Homo sapiens, UniProt P42336); construct: His tag (C); made in house; host or cells: baculovirus BV1075; Tn5 (Trichoplusia ni) or TiniPro insect cells; experiment: PI3K alpha kinase assay (Kinase-Glo luminescence); type: biochemical; details: read-out: EPK_PI3Kalfa/IC50
Sequence (P42336 with tags, fused parts or gaps limits assumed): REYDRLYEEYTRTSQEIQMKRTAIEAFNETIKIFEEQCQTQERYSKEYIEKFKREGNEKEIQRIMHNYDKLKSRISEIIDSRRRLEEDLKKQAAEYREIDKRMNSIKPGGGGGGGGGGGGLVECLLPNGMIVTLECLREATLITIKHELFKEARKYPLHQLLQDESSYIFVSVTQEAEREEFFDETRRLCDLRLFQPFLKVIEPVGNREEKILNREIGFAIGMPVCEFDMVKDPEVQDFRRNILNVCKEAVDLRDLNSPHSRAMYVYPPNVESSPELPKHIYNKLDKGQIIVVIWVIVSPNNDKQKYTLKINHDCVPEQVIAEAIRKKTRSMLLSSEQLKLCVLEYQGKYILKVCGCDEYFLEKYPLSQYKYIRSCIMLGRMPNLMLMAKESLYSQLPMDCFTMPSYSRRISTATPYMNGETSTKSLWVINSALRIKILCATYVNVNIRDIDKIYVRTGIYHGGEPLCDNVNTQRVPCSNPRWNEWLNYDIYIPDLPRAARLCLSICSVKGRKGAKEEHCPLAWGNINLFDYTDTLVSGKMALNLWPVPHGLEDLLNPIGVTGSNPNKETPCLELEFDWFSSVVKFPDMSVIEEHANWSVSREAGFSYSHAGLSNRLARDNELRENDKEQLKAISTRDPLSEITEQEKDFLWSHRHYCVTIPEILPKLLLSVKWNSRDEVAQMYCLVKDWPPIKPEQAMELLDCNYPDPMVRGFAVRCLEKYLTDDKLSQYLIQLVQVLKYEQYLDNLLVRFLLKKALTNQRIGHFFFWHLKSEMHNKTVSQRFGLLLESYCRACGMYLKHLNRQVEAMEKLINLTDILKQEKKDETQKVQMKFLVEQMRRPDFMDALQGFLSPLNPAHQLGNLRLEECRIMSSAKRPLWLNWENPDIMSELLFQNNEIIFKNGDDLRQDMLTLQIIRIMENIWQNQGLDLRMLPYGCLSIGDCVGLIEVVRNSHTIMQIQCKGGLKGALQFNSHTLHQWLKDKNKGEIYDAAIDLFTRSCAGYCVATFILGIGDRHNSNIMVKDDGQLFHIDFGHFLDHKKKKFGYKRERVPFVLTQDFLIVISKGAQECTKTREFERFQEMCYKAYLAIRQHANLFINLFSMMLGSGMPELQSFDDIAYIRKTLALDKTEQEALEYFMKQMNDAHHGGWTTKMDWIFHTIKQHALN
measured.property: pIC50
Scale for pIC50: -log10 of concentration given in mol/L; no unit attached.

Cc1ncccc1-n1c(=O)n(C)c2cnc3ccc(-c4cncc(N5CCC5)c4)cc3c21 = 6.75
Cc1ccc(-n2c(=O)n(C)c3cnc4ccc(-c5cnc(N)c(C(F)(F)F)c5)cc4c32)c(C)n1 = 8.30
CCNc1cc(-c2ccc3ncc4c(c3c2)n(-c2ccc(N3CCCC3)nc2C)c(=O)n4C)cnc1CO = 7.55
COc1cc(-c2ccc3ncc4c(c3c2)n(-c2ccc(N3CC(F)(F)C(F)(F)C3)nc2C)c(=O)n4C)cnc1CO = 7.85
COCC(=O)Nc1ccc(-n2c(=O)n(C)c3cnc4ccc(-c5cncc(N)c5)cc4c32)c(C)n1 = 7.30
CNc1cncc(-c2ccc3ncc4c(c3c2)n(-c2cccnc2C)c(=O)n4C)c1 = 7.85

Prompt: Recorded pIC50 of Cc1nc(N2CCC(O)C2)ccc1-n1c(=O)n(C)c2cnc3ccc(-c4cnc(N)c(C(F)(F)F)c4)cc3c21 (stereo not drawn) , please.
Response: 8.30

Prompt: Another: COc1cc(-c2ccc3ncc4c(c3c2)n(-c2ccc(N3CC(F)(F)C3)nc2C)c(=O)n4C)cnc1CO
Response: 7.25

Prompt: Another: CNc1ncc(-c2ccc3ncc4c(c3c2)n(-c2ccc(N3CC(F)(F)C3)nc2C)c(=O)n4C)cn1
Response: 7.31

Prompt: Another: CNc1ncc(-c2ccc3ncc4c(c3c2)n(-c2cnc(F)cc2C)c(=O)n4C)cn1
Response: 7.15

Prompt: Another: COCc1ncc(-c2ccc3ncc4c(c3c2)n(-c2ccc(N3CCC3)nc2C)c(=O)n4C)cc1OC(C)C
Response: 7.48

Prompt: Another: CCNc1cc(-c2ccc3ncc4c(c3c2)n(-c2ccc(OCCOC)nc2C)c(=O)n4C)cnc1C
Response: 7.89

Prompt: Another: COCCOc1ccc(-n2c(=O)n(C)c3cnc4ccc(-c5cnc(COC)c(OC)c5)cc4c32)c(C)n1
Response: 6.79

Prompt: Another: CNc1ncc(-c2ccc3ncc4c(c3c2)n(-c2ccc(N3CCC(O)C3)nc2C)c(=O)n4C)cn1 (stereo not drawn)
Response: 7.49

Prompt: Another: CNc1cc(-c2ccc3ncc4c(c3c2)n(-c2ccc(F)nc2C)c(=O)n4C)cnc1CO
Response: 7.77
